Tested on: A549/ATCC NSCLC
METHOD: NCI-60 one-dose screen, 48 h (100 = growth as untreated, 0 = no growth, -100 = all killed)
TEST_CONDITIONS: 10 µM unless noted
The panel holds about 83,000 compounds, 20% with a hit somewhere; the sample as a whole holds those more often. The source made the active and inactive calls. How the source made its calls: active means growth percent below 10; inactive means the rest.
RECORDED_METRIC: growth

What value of measured growth is listed for CC1(C)N=C(N)N=C(N)N1c1ccc(CCCCc2ccc(S(=O)(=O)F)cc2)c(Cl)c1 ?
8.36% (active)

Thanks! And CC1(C)N=C(N)N=C(N)N1c1ccc(CNC(=O)Nc2ccc(S(=O)(=O)F)c(Cl)c2)c(Cl)c1 ?
10% (inactive)

Next molecule up: C=CCN1C(=O)C(CC)(CCC(C)C)C(=O)NC1=S (stereo unspecified)
98.7% (inactive)

Then this molecule: CN1CCN(C(=O)COc2ccc(/C=C3\CC4C5CC=C6CC(Cl)CCC6(C)C5CCC4(C)C3=O)cc2)CC1 (stereo unspecified)
65% (inactive)

What about CCCCNCCc1ccccn1 ?
100% (inactive)

Request: CC1(C)N=C(N)N=C(N)N1c1cccc(C(=O)Nc2cccc(S(=O)(=O)F)c2)c1
104% (inactive)

Do the same for CCC(CO)NC1CCCCC1 (stereo unspecified) please
93.8% (inactive)

###

System: HL-60(TB) leukemia
METHOD: NCI-60 one-dose screen, 48 h
TEST_CONDITIONS: 10 µM unless noted
About 83,000 compounds went through this panel and 20% of them were active in at least one assay; those are over-represented in the sample as a whole. Calls of active or inactive are those of the source. The calls were made as follows: active = growth percent below 10; inactive = the rest.
Hello, when you answer, please use one of the following outcomes: active, inactive

Reference set (6 entries):
{"columns": ["COMPOUND", "TESTED_TARGET", "LABEL_VALUE"],
 "data": [
  ["COc1ccccc1C1=C(Br)C(=O)c2nc(C)ccc2C1=O", "HL-60(TB) leukemia", "inactive"],
  ["COc1cc(/C=C\\c2cc(OC)c(OC)c(OC)c2)cc(NS(=O)(=O)c2ccc(Cl)cc2)c1OC", "HL-60(TB) leukemia", "active"],
  ["CCN(CC)C(=O)c1cccnc1", "HL-60(TB) leukemia", "inactive"],
  ["COc1cc(C2=NN(C(C)=O)C(c3cc(OC)c(OC)c(OC)c3)C2)ccc1O (configuration not stated)", "HL-60(TB) leukemia", "active"],
  ["Cc1cc(Cl)nc(N(CCCNc2ccnc3cc(Cl)ccc23)Cc2ccco2)n1", "HL-60(TB) leukemia", "active"],
  ["COc1ccc(/C=C(/C(=O)N2CCCC2)c2cc(OC)c(OC)c(OC)c2)cc1", "HL-60(TB) leukemia", "active"]
]}

Field: outcome | Entry: COc1ccc(-c2nn(-c3cccc(NC(=O)Nc4cccc(C(F)(F)F)c4)c3)cc2-c2ccncc2)cc1Cl
active

###

Tested on: HL-60(TB) leukemia
METHOD: NCI-60 one-dose screen, 48 h (100 = growth as untreated, 0 = no growth, -100 = all killed)
TEST_CONDITIONS: 10 µM unless noted
About 83,000 compounds went through this panel and 20% of them were active in at least one assay; those are over-represented in the sample as a whole.
Respond with 1 for growth values of 60% and above, -1 for values below.

{"columns": ["MOLECULE", "LABEL_VALUE"],
 "data": [
  ["Cc1cc(C)c2nc(Nc3nc(C)c(C)c(=O)[nH]3)nc(C)c2c1", -1],
  ["O=C(CCCSc1nc(-c2ccccc2)cc(-c2ccccc2)n1)NO", -1],
  ["Cc1csc(Nc2nc(-c3ccccn3)nc(C(Cl)(Cl)Cl)n2)n1", 1],
  ["Nc1ccccc1NC(=O)c1ccc(CN2CCC/C(=C\\c3cccc(Cl)c3)C2=O)cc1", -1]
]}

Is growth at least 60%? Consider CC(C)CCC[C@@H](C)[C@H]1CCC2C3=CCn4c(=O)ccc(=O)n4C3CC[C@@]21C (stereo partly drawn)
-1

Cool, now S=P(NC1CCCCC1)(N1CC1)N1CC1
1

###

Test system: NCI-H23 lung
METHOD: NCI-60 one-dose screen, 48 h (100 = growth as untreated, 0 = no growth, -100 = all killed)
TEST_CONDITIONS: 10 µM unless noted
The panel holds about 83,000 compounds, 20% with a hit somewhere; the sample as a whole holds those more often.
RECORDED_METRIC: growth (%)
Quick note: give the figure in %, leave out the unit.

Guide cases for growth, answers given:
{"columns": ["COMPOUND", "DATA_VALUE"],
 "data": [
  ["NC(Cc1ccc(O)cc1)C(=O)N/N=C/c1ccc(N(CCCl)CCCl)cc1 (configuration not stated)", 69.6],
  ["N#C[Se]CCN1C(=O)C2C(C1=O)[C@H]1C=C[C@@H]2S1 (some centres not stated)", -11.7],
  ["CC(C)(NC(=O)c1nn(CCCCCF)c2ccccc12)c1ccccc1", 101],
  ["CC(=O)O[C@@H]1C2=C(C)C3(CC3)[C@@](C)(O)C(=O)C2=C[C@@]1(C)CO", -33.2],
  ["O=C(Nc1ccc(S(=O)(=O)F)cc1)Oc1ccccc1", 97.8],
  ["Cc1cc(NC(=O)/C=C/c2ccc([N+](=O)[O-])cc2)ccc1S(=O)(=O)F", 109]
]}

Now for a further compound.
I would be grateful if you could share the reported growth for CC[C@]12C=CCN3CC[C@@]4(c5ccc(OC)cc5N(C)[C@H]4[C@@](O)(C(=O)OC)[C@@H]1OC(=O)CCCN1CCN(CCCC(=O)O[C@@H]4[C@]5(CC)C=CCN6CC[C@@]7(c8ccc(OC)cc8N(C)[C@H]7[C@@]4(O)C(=O)OC)[C@@H]65)CC1)[C@@H]32 .
-80.6

###

Test system: HL-60(TB) leukemia
METHOD: NCI-60 one-dose screen, 48 h (100 = growth as untreated, 0 = no growth, -100 = all killed)
TEST_CONDITIONS: 10 µM unless noted
The panel holds about 83,000 compounds, 20% with a hit somewhere; the sample as a whole holds those more often.
Recorded measurements of growth, one per entry
Value expressed in %; do not type the unit.

Use the examples below as a reference point.
{"columns": ["COMPOUND", "DATA_VALUE"],
 "data": [
  ["Oc1[nH]c2ccc(Cl)cc2c1/C=c1/ccc2c(c1)N=C(c1ccc(F)cc1)N=2", 51.5],
  ["COc1ccc(C(c2cc(OC)c(OC)c(OC)c2)N2CCCC2)cc1 (centres undefined)", 35.5],
  ["Oc1ccccc1/C=N\\Nc1ccccc1", 16.5],
  ["CCNC(=O)c1[nH]cc(-c2ccc(OC)cc2)c1-c1cc(OC)cc(OC)c1", 82.1],
  ["CN(C)c1ccc(-c2ccc(-c3ccc(C(=N)N)cc3)s2)cc1", 14.4],
  ["COc1cc(C(=O)/C=C/c2c(-c3cccs3)nc3ccccn23)cc(OC)c1OC", -14.2],
  ["O=C(Nc1nc(-c2ccccc2Cl)cs1)c1cc(-c2ccc(Cl)cc2)nc2ccc(Cl)cc12", -21.9],
  ["N=C1N=C(N)CS1", 112]
]}

Dear colleague, I am looking for the recorded growth of the following compound: COc1cc(C2C(C#N)=C(N)OC3=C2C(=O)c2ccccc2C3=O)cc(OC)c1O (centres undefined)
90.9

###

Test system: HL-60(TB) leukemia
METHOD: NCI-60 one-dose screen, 48 h
TEST_CONDITIONS: 10 µM unless noted
This is part of a sample that, as a whole, favours compounds with a hit. Of some 83,000 tested, about 20% had one in any assay. Calls of active or inactive are those of the source. How the source made its calls: active means growth percent below 10; inactive means the rest.
Your answer must be one of the following: y = active, n = inactive

Hi, do you know how O=C1OC(c2ccccc2)=N/C1=C\c1ccc([N+](=O)[O-])cc1 came out in this test?
n

Ok, now O=C1CS/C(=N/c2nnc(-c3ccc(O)cc3)s2)N1
n

Consider next the compound C=C1C(=O)O[C@H]2[C@H]1CC/C(COC(=O)NCc1c[nH]c3ccc(Br)cc13)=C\CC[C@@]1(C)O[C@@H]21 in the same way.
y

Consider next the compound CCCCCS(=O)(=O)Nc1ccc(C(=O)O)cc1 in the same way.
n

Queued: CCCCCCCCCCCCSC1=CC(=O)C=CC1=O
y

Record: Cc1cc(Nc2nc(N3CCNCC3)nc3ccccc23)n[nH]1
n

Same question, CC1=C(C(=O)Nc2ccc(F)cc2)C(c2ccc(C)cc2)C2=C(CC(C)(C)CC2=O)N1 (stereo not drawn) this time
n

Please answer likewise for C=C(C)[C@@H]1CC[C@]2(C(=O)N3CCNCC3)CC[C@]3(C)[C@H](CC[C@@H]4[C@@](C)(CCC(=O)N5CCNCC5)[C@H](C(=C)C)CC[C@]43C)[C@@H]12
n

Now the compound Cc1cc(C)nc(NS(=O)(=O)c2ccc(Nc3ccc4c5c(n(CCCN(C)C)c(=O)c4c3)-c3ccccc3C5=O)cc2)n1
n

Could you do the same for NCC(=O)NS(=O)(=O)OC[C@H]1O[C@@H](n2cnc3c(N)ncnc32)[C@H](O)[C@@H]1O , please?
y

Now the compound CCN(Cc1ccccc1)C1CCN(Cc2cc(Br)ccc2O)CC1
n

What do we get for c1cc(C2CCCCC2)ccc1-c1cnc2nonc2n1 ?
y

Also check COC(=O)N[C@H]1CCc2c(Cl)c(OC)c(OC)c(OC)c2-c2ccc(SC)c(=O)cc21
y

Also check COc1ccc(S(=O)(=O)n2cc(C3OC(c4cc(OC)c(OC)c(OC)c4)=NN3C(C)=O)c3ccccc32)cc1OC (stereo not drawn)
n

Also check COc1cc(/C=C/C(=O)/C=C(O)/C=C/c2ccc(OC(=O)C34CC5CC(CC(C5)C3)C4)c(OC)c2)ccc1OC(=O)C12CC3CC(CC(C3)C1)C2
n

Same again, this time with N#Cc1c(-c2ccc(Cl)cc2)nc(NCCO)[nH]c1=O
n

What about this compound? O=C1Nc2ccccc2/C1=C/c1cn(CCCn2c3ccccc3c(=O)c3ccccc32)c2ccccc12
n
